- test.system: PcrV of P. aeruginosa strain 6077 (Pseudomonas aeruginosa strain 6077)
- assay.remarks: cell-based or functional assay
recorded.endpoint: A549 Cytotoxicity Assay (IC50)

[[record]]
binder = "H1H29336P (antibody, V domains shown) VH: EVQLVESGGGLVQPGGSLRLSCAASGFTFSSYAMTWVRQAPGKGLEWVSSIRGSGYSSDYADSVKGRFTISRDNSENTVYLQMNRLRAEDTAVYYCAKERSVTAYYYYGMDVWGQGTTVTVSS VL: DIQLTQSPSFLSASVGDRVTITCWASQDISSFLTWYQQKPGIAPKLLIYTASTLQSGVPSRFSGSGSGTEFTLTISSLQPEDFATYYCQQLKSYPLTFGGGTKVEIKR"
reported_result = "840 pM"

